target: full length pHrodo-labelled aggregated (P301S) 2N4R tau (human, UniProt P10636 1-758, labelled with pHrodo Red Maleimide); test: cell-based or functional assay; also: test concentration or dose not given here
Sequence (P10636 other isoform, or with tags, fused parts or gaps P301S P301S): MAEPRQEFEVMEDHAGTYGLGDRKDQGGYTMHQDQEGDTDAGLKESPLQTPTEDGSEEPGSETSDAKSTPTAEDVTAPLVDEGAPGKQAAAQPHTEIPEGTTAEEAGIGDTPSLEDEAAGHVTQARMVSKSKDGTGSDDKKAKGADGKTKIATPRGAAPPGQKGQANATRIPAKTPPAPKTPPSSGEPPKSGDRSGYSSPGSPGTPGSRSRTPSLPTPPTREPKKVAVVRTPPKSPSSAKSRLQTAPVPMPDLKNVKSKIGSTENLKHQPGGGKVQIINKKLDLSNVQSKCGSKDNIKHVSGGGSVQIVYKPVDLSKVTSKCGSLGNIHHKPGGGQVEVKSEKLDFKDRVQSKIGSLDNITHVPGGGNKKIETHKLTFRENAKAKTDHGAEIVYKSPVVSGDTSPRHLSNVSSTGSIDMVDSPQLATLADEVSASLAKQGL
ASSAY_METRIC: inhibition of uptake of aggregated tau into human iPSC-derived astrocytes (% inhibition)
Answers are plain numbers, in % inhibition.

// known answers, use as guide
BINDER	EXPERIMENTAL_RESULT
Clone 24 (VH3Vκ4), humanised variant of clone #28, human IgG1 (antibody, V domains shown, also called VH3VK4; VH3Vk4) VH: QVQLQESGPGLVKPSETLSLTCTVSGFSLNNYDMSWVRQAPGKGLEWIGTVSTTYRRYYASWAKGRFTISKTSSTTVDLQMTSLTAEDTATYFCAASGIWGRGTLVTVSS VL: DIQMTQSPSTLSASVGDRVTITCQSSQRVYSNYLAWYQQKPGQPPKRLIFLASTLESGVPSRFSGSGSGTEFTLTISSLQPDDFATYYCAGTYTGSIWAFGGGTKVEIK	30.8
Clone 28 (VH4Vκ4), humanised variant of clone #28, human IgG1 (antibody, V domains shown, also called VH4VK4; VH4Vk4) VH: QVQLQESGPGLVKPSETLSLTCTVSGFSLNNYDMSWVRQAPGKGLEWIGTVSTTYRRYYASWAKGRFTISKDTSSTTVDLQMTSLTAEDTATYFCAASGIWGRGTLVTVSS VL: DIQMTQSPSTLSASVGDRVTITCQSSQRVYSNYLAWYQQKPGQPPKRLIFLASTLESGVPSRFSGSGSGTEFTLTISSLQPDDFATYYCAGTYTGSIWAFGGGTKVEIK	29.1
Clone 31 (VH5Vκ2), humanised variant of clone #28, human IgG1 (antibody, V domains shown, also called VH5VK2; VH5Vk2) VH: QVQLQESGPGLVKPSETLSLTCTVSGFSLNNYDMSWVRQAPGKGLEWIGTVSTTYRRYYASWAKGRFTISRDNSKNTLDLQMTSLTAEDTATYFCAASGIWGRGTLVTVSS VL: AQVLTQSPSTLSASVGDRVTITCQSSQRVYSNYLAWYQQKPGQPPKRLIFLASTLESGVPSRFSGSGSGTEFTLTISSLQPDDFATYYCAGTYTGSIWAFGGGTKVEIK	27.8

Now for another entry.
Task: Value lookup for inhibition of uptake of aggregated tau into human iPSC-derived astrocytes; key = Clone 32 (VH5Vκ4), humanised variant of clone #28, human IgG1 (antibody, V domains shown, also called VH5VK4; VH5Vk4) VH: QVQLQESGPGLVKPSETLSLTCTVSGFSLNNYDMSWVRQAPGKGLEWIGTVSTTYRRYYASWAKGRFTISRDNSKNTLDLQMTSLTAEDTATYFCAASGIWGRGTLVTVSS VL: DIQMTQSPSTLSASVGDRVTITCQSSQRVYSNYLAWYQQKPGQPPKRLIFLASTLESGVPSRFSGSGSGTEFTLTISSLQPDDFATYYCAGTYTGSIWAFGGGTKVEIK
Output: 45.7
